Hey, just so you know, these numbers are from a melting point compilation (Tetko et al.; mined from patent text by program, amines drawn as free bases though some values may be those of a salt).

Property label: melting point

Look over these answered cases.
- COc1cccc2c1OC(C(=O)Nc1ccncc1)C2CC(=O)O (stereo unspecified): 227 to 233 °C
- COc1ccc2[nH]c3c(C)cnc(Cl)c3c2c1: 243 to 245 °C
- COC(=O)c1cccc(-c2cn(C)cc(-c3ccc(C)cc3)c2=O)c1: 85 to 88 °C
- Cc1nn(C)c(C(N)=O)c1Cl: 101 °C
- CCCN(CCC)C(=O)Cn1c(-c2ccc(Cl)cc2)nc2ccc(Cl)nc21: 170 to 174 °C

Item: CC(C)[C@H](NC(=O)OCc1ccccc1)C(=O)NCCCNC(=O)[C@@H](NC(=O)OCc1ccccc1)C(C)C | melting point: 211 to 212 °C

Item: CSc1c(CC(=O)O)ccc2c1[nH]c1ccccc12 | melting point: 210 to 212 °C
